Target: PLA2G7 (Mus musculus, UniProt Q60963)
Construct: Proteomes (mouse brain membrane fraction or cell lysates); from tissue; host or cells: mouse brain membrane fraction (or cell lysates, not specified)
Sequence (Q60963 22-440): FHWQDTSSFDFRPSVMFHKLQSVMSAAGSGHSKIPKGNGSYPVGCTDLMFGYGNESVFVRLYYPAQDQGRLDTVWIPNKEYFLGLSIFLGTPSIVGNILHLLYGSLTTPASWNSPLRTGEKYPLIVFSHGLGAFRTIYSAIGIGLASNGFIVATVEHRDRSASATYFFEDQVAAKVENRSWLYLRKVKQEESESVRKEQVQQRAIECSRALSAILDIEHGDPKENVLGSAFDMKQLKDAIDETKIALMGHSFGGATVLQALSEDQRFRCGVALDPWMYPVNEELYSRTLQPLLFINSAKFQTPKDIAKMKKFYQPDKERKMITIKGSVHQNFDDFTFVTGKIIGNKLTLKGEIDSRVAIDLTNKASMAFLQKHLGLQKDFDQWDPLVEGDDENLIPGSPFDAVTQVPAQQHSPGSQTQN
Assay: In vitro competitive activity-based protein profiling (gel-based, FP-Rh or HT-01 probe)
Assay type: biochemical
Details: 10 μM inhibitor; read-out: % Inhibition at 10 μM, D = PLA2G7
Procedure: In Vitro Competitive Activity-Based Protein Profiling. Proteomes (mouse brain membrane fraction or cell lysates) (50 μL, 1.0 mg/mL total protein concentration) were preincubated with varying concentrations of inhibitors at 37° C. […] Following gel imaging, serine hydrolase activity was determined by measuring fluorescent intensity of gel bands corresponding to MAGL, ABHD6, FAAH, and PLA2G7 using ImageJ 1.43u software.
value type: inhibition at 10 µM

Worked examples follow.
- smiles repr: "O=C(c1cnn(C(=O)N2CCN(Cc3ccc4c(c3)OCO4)CC2)c1)N1CCOCC1"
  inhibition at 10 µM: "> 75%"
- smiles repr: "CS(=O)(=O)N1CCCN(C(=O)n2cc(C#N)cn2)CC1"
  inhibition at 10 µM: "25 to 75%"
- smiles repr: "Cc1cc(-c2ccccc2)ccc1CN1CCN(C(=O)n2cc(C(=O)N3CCC3)cn2)CC1"
  inhibition at 10 µM: "> 75%"
- smiles repr: "O=C(c1cnn(C(=O)N2CCN(Cc3cncnc3)CC2)c1)N1CCOCC1"
  inhibition at 10 µM: "> 75%"
- smiles repr: "O=C(N1CCN(Cc2ccc3ccccc3c2)CC1)n1cc(Br)cn1"
  inhibition at 10 µM: "> 75%"
- smiles repr: "COC(=O)c1cnn(C(=O)N2CCN(Cc3ccc4ccccc4c3)CC2)c1"
  inhibition at 10 µM: "> 75%"
- smiles repr: "O=C(c1cnn(C(=O)N2CCN(Cc3ccccn3)CC2)c1)N1CCCC1"
  inhibition at 10 µM: "> 75%"
- smiles repr: "CC(=O)N(C)CCN(C)C(=O)n1cc(C(F)(F)F)cn1"
  inhibition at 10 µM: "> 75%"

Your task in this section: give inhibition at 10 µM for each listed record.
1. N#Cc1cnn(C(=O)NCCCc2ccccc2)c1
2. COc1cc(-c2ccccc2)ccc1CN1CCN(C(=O)n2cc(C#N)cn2)CC1
3. O=C(N1CCN(Cc2ccc3ccccc3c2)CC1)n1cc(I)cn1
4. O=C(c1cnn(C(=O)N2CCN(Cc3cccnc3)CC2)c1)N1CCCC1

Out:
["< 25%", "> 75%", "> 75%", "> 75%"]
